Let's look at some molecules and their measured IC50.
- ASSAYED_TARGET: MARK4 (Homo sapiens)
- Construct: purchased MRC PPU
- Sequence (Q96L34 1-752): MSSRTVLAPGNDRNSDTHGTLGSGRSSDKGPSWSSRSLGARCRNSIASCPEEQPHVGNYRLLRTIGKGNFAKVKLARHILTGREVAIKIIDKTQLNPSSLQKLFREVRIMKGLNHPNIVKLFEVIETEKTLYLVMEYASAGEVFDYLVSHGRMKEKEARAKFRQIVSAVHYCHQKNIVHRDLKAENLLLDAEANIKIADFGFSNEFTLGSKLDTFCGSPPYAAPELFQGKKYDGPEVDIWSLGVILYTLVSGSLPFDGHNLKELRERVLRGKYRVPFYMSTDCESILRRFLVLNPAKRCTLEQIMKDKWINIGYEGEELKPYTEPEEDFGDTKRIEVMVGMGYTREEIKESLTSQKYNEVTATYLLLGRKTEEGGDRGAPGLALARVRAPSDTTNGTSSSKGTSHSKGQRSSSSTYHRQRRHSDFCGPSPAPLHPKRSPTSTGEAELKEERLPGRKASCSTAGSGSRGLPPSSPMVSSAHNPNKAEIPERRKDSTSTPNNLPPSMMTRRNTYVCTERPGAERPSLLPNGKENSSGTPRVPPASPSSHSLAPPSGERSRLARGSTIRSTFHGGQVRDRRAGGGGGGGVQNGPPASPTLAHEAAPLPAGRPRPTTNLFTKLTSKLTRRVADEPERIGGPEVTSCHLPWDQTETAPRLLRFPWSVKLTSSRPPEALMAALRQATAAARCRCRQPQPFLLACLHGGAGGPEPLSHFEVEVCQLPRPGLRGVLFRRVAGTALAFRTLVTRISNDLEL
- PROTOCOL_DESCRIPTION: ADP-Glo biochemical assay MARK4
- EXPERIMENTAL_PARAMETERS: ADP-Glo assay; read-out: MARK4 pIC50 (converted)
// note: answer is a bare numeric in µM

INSERT INTO assay_data (molecule, value_reported) VALUES
  ('Cc1cc(=O)n(C2CCCC2)c2nc(Nc3ccc(N4CCN(C(C)C)CC4)cc3)ncc12', 9.12),
  ('CN1C2CC1CN(c1ccc(Nc3ncc4ccn(CC5CCCO5)c4n3)cc1)C2 (stereo not drawn)', 6.46),
  ('CC(C)N1CCN(c2ccc(Nc3ncc4ccn(C5CCCC5)c4n3)cc2)CC1', 2.34),
  ('CC(C)N1CCN(c2ccc(Nc3ncc4ccn(CC5CCOCC5)c4n3)cc2)CC1', 11.5);

Here's the next entry for you.
[Q] IC50 for CC(C)N1CCN(c2ccc(Nc3ncc4ccn(CC5CCCO5)c4n3)cc2)CC1 (stereo not drawn) ?
[A] 2.63
